Study System: Torsin-1A-interacting protein 2 (Homo sapiens) (UniProt Q8NFQ8)
Sequence (Q8NFQ8 whole entry, looked up): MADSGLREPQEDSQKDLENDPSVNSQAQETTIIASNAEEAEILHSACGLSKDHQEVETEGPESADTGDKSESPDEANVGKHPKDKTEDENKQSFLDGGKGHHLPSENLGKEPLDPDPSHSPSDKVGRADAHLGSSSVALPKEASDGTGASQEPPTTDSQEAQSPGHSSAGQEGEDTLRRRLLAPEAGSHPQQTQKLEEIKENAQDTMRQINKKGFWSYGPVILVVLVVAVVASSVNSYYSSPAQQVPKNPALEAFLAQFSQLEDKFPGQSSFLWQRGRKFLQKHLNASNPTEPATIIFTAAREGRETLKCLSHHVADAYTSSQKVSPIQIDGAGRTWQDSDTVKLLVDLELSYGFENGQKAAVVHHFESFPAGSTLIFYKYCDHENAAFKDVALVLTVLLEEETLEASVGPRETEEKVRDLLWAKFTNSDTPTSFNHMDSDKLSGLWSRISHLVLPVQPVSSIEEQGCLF
Protocol Description: small molecules binding lysate-expressed LULL1 – cell lysate, human LULL1 lysate, 635/667 nm fluorescence, primary screen (AID 1092);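 also: probe is lysate of COS7 cells overexpressing human LULL1; score merges per-feature 667 nm fluorescence with signal-to-noise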
Experimental Setup: small-molecule microarray, hLULL1 lysate binding, 635 nm fluorescence; higher = more signal
# Lookup of reported composite z-score keyed by entry
Metric Name: composite z-score

{"columns": ["Compound", "Study System", "Reported Result"],
 "data": [
  ["CCCCN1CC=CC23O[C@@H]4C=CCCOC(=O)C4[C@H]2C(=O)N(CCCCCO)[C@@H]3C1=O (some centres undefined)", "Torsin-1A-interacting protein 2 (Homo sapiens) (UniProt Q8NFQ8)", 0.905],
  ["C#CCOc1ccc(C[C@@H](C(=O)OC)N(CC#C)[C@@H](/C=C/C2CC2)[C@H](O)Cc2ccccc2)cc1", "Torsin-1A-interacting protein 2 (Homo sapiens) (UniProt Q8NFQ8)", -0.361],
  ["CCCC[C@H]1C[C@@H]1[C@@H]1N(P(=O)(c2ccccc2)c2ccccc2)C[C@@](O)(c2ccccc2)CC12CC2", "Torsin-1A-interacting protein 2 (Homo sapiens) (UniProt Q8NFQ8)", 3.06],
  ["COc1cc2c(cc1OC)CN(C(=O)[C@H]1[C@@H]3C(=O)O[C@@H](c4ccccc4)[C@@H](c4ccccc4)N3[C@@H](c3ccccc3OCCO)[C@]13C(=O)Nc1ccc(C#CCCO)cc13)CC2", "Torsin-1A-interacting protein 2 (Homo sapiens) (UniProt Q8NFQ8)", 1.61],
  ["COc1ccc([Si](C)(C)[C@H]2[C@H](CCn3cc([C@H](O)c4ccccc4)nn3)O[C@@]3(C(=O)N(C)c4ccccc43)[C@@H]2C)cc1", "Torsin-1A-interacting protein 2 (Homo sapiens) (UniProt Q8NFQ8)", 0.446],
  ["C=CC[C@@]1(C(=O)N2CCCCC2)N=C(c2ccc(OCCCO)cc2)O[C@@H]1c1ccccc1CN=[N+]=[N-]", "Torsin-1A-interacting protein 2 (Homo sapiens) (UniProt Q8NFQ8)", 3.67],
  ["COc1ccc([C@H]2C[C@H]3C(I)=C[C@@H]2C(=O)[C@]32CO2)cc1", "Torsin-1A-interacting protein 2 (Homo sapiens) (UniProt Q8NFQ8)", -0.83],
  ["CC(=O)Nc1cc(Br)ccc1C(=O)NCc1ccccc1", "Torsin-1A-interacting protein 2 (Homo sapiens) (UniProt Q8NFQ8)", 2.06],
  ["O=C1O[C@H](c2ccccc2)[C@H](c2ccccc2)N2[C@H]1[C@@H](C(=O)N1CCN(c3ncccn3)CC1)[C@]1(C(=O)Nc3ccc(C#CC4=CCCCC4)cc31)[C@H]2c1ccccc1OCCO", "Torsin-1A-interacting protein 2 (Homo sapiens) (UniProt Q8NFQ8)", 2.65],
  ["CC[C@@H]1C=C(C(=O)O)[C@H](c2cccc3ccccc23)N1S(=O)(=O)c1ccc(C)cc1", "Torsin-1A-interacting protein 2 (Homo sapiens) (UniProt Q8NFQ8)", 3],
  ["CC(C)(C)OC(=O)CC[C@]1(C(N)=O)N=C(c2ccc(OCCCO)cc2)O[C@H]1c1ccccc1", "Torsin-1A-interacting protein 2 (Homo sapiens) (UniProt Q8NFQ8)", 3.74],
  ["CS(=O)(=O)CCOC(=O)C1=CC(CCCO)=CC(C2CC2)N(Cc2cc3c(cc2Br)OCO3)C=C1C(=O)OCCS(C)(=O)=O (centres undefined)", "Torsin-1A-interacting protein 2 (Homo sapiens) (UniProt Q8NFQ8)", 1.84],
  ["O=C1OCC=C[C@H]2OC34C=CCN(Cn5nnc6ccccc65)C(=O)[C@H]3N(CCCCCO)C(=O)[C@@H]4[C@@H]12 (some centres undefined)", "Torsin-1A-interacting protein 2 (Homo sapiens) (UniProt Q8NFQ8)", 2.81],
  ["[N-]=[N+]=Nc1ccccc1[C@H]1OC(c2ccc(OCCCO)cc2)=N[C@@]1(CCS(=O)(=O)c1ccccc1)C(=O)NCc1ccccc1", "Torsin-1A-interacting protein 2 (Homo sapiens) (UniProt Q8NFQ8)", 3.63],
  ["CCOC(=O)[C@H]1C/C=C/C[C@H](C(=O)OCC)C(=O)O[C@H]2[C@@H](OC)O[C@H](CO)[C@@H](OC(=O)c3ccc(Br)cc3)[C@@H]2OC1=O", "Torsin-1A-interacting protein 2 (Homo sapiens) (UniProt Q8NFQ8)", 0.796],
  ["CCOC(=O)C[C@H]1[C@H](OC(=O)c2ccc(C(=O)c3ccccc3)cc2)[C@@H](NC(=O)c2ccccc2)c2cc(OCCCO)ccc2N1C(=O)c1ccccc1", "Torsin-1A-interacting protein 2 (Homo sapiens) (UniProt Q8NFQ8)", 1.72],
  ["COCCCNC(=O)[C@]1(Cc2ccccc2)N=C(c2ccc(OCCCO)cc2)O[C@@H]1c1ccccc1CN=[N+]=[N-]", "Torsin-1A-interacting protein 2 (Homo sapiens) (UniProt Q8NFQ8)", 3.59],
  ["CC(C)N1CC=CC23O[C@@H]4C=CCOC(=O)[C@@H]4[C@H]2C(=O)N(CCCCCO)[C@@H]3C1=O (some centres undefined)", "Torsin-1A-interacting protein 2 (Homo sapiens) (UniProt Q8NFQ8)", 2.64],
  ["NC(=O)N1C(=O)C2C(C1=O)C1C=C(CCCO)C2C(C2CC2)N1Cc1cc2c(cc1Br)OCO2 (centres undefined)", "Torsin-1A-interacting protein 2 (Homo sapiens) (UniProt Q8NFQ8)", 1.36],
  ["COc1ccccc1CN1C(=O)c2ccccc2[C@@H](C(=O)NCc2ccccc2)[C@@H]1c1ccc(CO)cc1", "Torsin-1A-interacting protein 2 (Homo sapiens) (UniProt Q8NFQ8)", 2.33],
  ["COc1cc(CO)cc(I)c1O[C@H]1C=C(C(=O)NCCO)C[C@@H](NC[C@@H]2CCCO2)[C@@H]1O", "Torsin-1A-interacting protein 2 (Homo sapiens) (UniProt Q8NFQ8)", 1.91],
  ["OCCCC1=CC(C2CC2)N(Cc2cccc(OC(F)(F)F)c2)CC1 (centres undefined)", "Torsin-1A-interacting protein 2 (Homo sapiens) (UniProt Q8NFQ8)", 0.25],
  ["COCCCNC(=O)[C@@]1(Cc2ccccc2)N=C(c2ccc(OCCCO)cc2)O[C@H]1c1ccccc1CN=[N+]=[N-]", "Torsin-1A-interacting protein 2 (Homo sapiens) (UniProt Q8NFQ8)", 3.16],
  ["CCOC(=O)C[C@H]1[C@H](OC(=O)c2cc3ccccc3oc2=O)[C@@H](NC(=O)CC(C)C)c2cc(OCCCO)ccc2N1C(=O)c1ccccc1", "Torsin-1A-interacting protein 2 (Homo sapiens) (UniProt Q8NFQ8)", 1.52],
  ["COC(=O)c1c(CC[C@@H](CO)NC(=O)N[C@H](Cc2ccccc2)Cn2cc(-c3ccccn3)nn2)oc(C(C)=O)c1C(=O)OC", "Torsin-1A-interacting protein 2 (Homo sapiens) (UniProt Q8NFQ8)", 1.68],
  ["COc1ccc(NC(=O)O[C@H]2[C@H](OC(=O)c3cc4ccccc4[nH]3)[C@@H](OC(=O)c3cc4ccccc4[nH]3)[C@@H](OC)O[C@@H]2CO)cc1", "Torsin-1A-interacting protein 2 (Homo sapiens) (UniProt Q8NFQ8)", 1.54],
  ["COCCOC(=O)N1C(=O)[C@@]2(c3ccccc31)[C@H](C(=O)N1CCc3cc(OC)c(OC)cc3C1)[C@H]1C(=O)O[C@H](c3ccccc3)[C@H](c3ccccc3)N1[C@@H]2c1ccc(O)cc1", "Torsin-1A-interacting protein 2 (Homo sapiens) (UniProt Q8NFQ8)", 2.85],
  ["CCOC(=O)C1=CC[C@@H](c2ccc(C(F)(F)F)cc2)N(S(=O)(=O)c2ccc(C)cc2)[C@H]1c1ccccc1", "Torsin-1A-interacting protein 2 (Homo sapiens) (UniProt Q8NFQ8)", 2.92],
  ["COCCOC(=O)N1C(=O)[C@@]2(c3ccccc31)[C@H](C(N)=O)[C@H]1C(=O)O[C@H](c3ccccc3)[C@H](c3ccccc3)N1[C@@H]2c1ccc(O)cc1", "Torsin-1A-interacting protein 2 (Homo sapiens) (UniProt Q8NFQ8)", 3.1]
]}
